molecular target: A2AR (Homo sapiens, UniProt P29274, N154A); assay: GTP hydrolysis assay; settings: IC50, dose-response assay, Supplementary Fig. 5a
Sequence (P29274 8-316 N154A): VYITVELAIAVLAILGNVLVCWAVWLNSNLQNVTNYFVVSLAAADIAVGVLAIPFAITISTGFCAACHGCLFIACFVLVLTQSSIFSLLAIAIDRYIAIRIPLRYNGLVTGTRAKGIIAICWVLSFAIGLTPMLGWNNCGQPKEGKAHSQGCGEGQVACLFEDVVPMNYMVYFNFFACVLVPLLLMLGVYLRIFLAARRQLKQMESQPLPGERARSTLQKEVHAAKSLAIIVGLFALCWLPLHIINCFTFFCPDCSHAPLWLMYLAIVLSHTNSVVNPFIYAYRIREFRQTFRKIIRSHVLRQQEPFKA
measurement label: IC50

molecule	assay system	value observed
CCCCC[C@H](O)/C=C/[C@H]1C(=O)C[C@H](O)[C@@H]1C/C=C\CCCC(=O)O [PGD2, prostaglandin D2]	A2AR (Homo sapiens, UniProt P29274, N154A)	180 µM
